# assay procedure: qHTS assay for small molecule disruptors of the mitochondrial membrane potential (AID 720635)
# experimental parameters: HepG2 mitochondrial membrane potential, Mito-MPS dye ratio; series mostly up to 83.2 µM
Records with an inconclusive call do not appear. Activity calls are given as the source filed them. Calls follow the shape of the dose curve; as a rule, active = well fitted inhibition curve with a large enough effect in the signal ratio in the repeat runs; inconclusive = weak or mixed curves, or effect the other way; inactive = flat fitted curve, though single readings scatter; the % refers to the signal ratio.
Please reply with one of these outcomes: active, inactive

These recorded examples may help you get a feel for the data.
What outcome does the record of this test show for OCC1CC=CCC1 (configuration not stated) ?
inactive

What outcome does the record of this test show for `ON(Cc1ccccc1)Cc1ccccc1` ?
inactive

What outcome does the record of this test show for `O=C(c1ccc(O)cc1)c1ccc(Cl)cc1` ?
active

What outcome does the record of this test show for `CCCCC(=O)O[C@]1(C(=O)CO)CC[C@H]2[C@@H]3CCC4=CC(=O)CC[C@]4(C)[C@H]3[C@@H](O)C[C@@]21C` ?
inactive

What outcome does the record of this test show for `CC[C@H](NC(=O)c1cc(F)ccc1NS(=O)(=O)c1cccc2cccnc12)c1ccccc1` ?
active

What outcome does the record of this test show for `Fc1c(F)c(F)c(Br)c(F)c1F` ?
inactive

What outcome does the record of this test show for C/C=C(\C)C(=O)OCCC(C)CCC=C(C)C (configuration not stated) ?
inactive

What outcome does the record of this test show for `Cc1c(C(=O)NN2CCCCC2)nn(-c2ccc(Cl)cc2Cl)c1-c1ccc(Cl)cc1` ?
active

What outcome does the record of this test show for `C=CCOC(=O)/C=C\C(=O)OCC=C` ?
inactive

What outcome does the record of this test show for `CCCCC(=O)O[C@]1(C(=O)CO)[C@@H](C)C[C@H]2[C@@H]3CCC4=CC(=O)C=C[C@]4(C)[C@@]3(F)[C@@H](O)C[C@@]21C` ?
active

New cases:
What outcome does the record of this test show for `CO[C@@]12[C@H](COC(N)=O)C3=C(C(=O)C(C)=C(N)C3=O)N1C[C@@H]1N[C@@H]12` ?
inactive

What outcome does the record of this test show for `N#C[C@@H]1C[C@@H]2C[C@@H]2N1C(=O)[C@@H](N)C12CC3CC(CC(O)(C3)C1)C2` ?
inactive

What outcome does the record of this test show for `CC(=O)Oc1ccc(C(=C2CCCCC2)c2ccc(OC(C)=O)cc2)cc1` ?
inactive
